- testMethodNotes: gradient 5% acetonitrile 3 min, to 50% in 2 min, to 85% in 15 min, held 3 min, 100 µL/min
- measurementConditions: column: Zorbax Extend-C18 2.1 x 50 mm; eluents: water / acetonitrile, 0.1% formic acid
parameterMeasured: RP-LC retention time (s)
Please reply with the bare figure in s and do not write the unit itself.

// known answers, use as guide
>>> measvalue("CCN(CC)S(=O)(=O)c1ccc(Cl)c(-c2nnc(-c3cccc(C)c3)o2)c1")
1170
>>> measvalue("Cc1nn(-c2ccc(C(=O)NCc3ccc4c(c3)OCO4)cc2)c2c1C(=O)CCC2")
780
>>> measvalue("CCOc1cc(C(=O)N(CC)c2nc(-c3ccccc3)cs2)cc(OCC)c1OCC")
663
>>> measvalue("COc1cc(C(=O)N2CCN(c3cc(C(C)C)n4cnnc4n3)CC2)cc(OC)c1OC")
613
>>> measvalue("Cc1ccc(Cl)cc1NC(=O)CSc1cc(N2CCN(c3ccccc3F)CC2)ncn1")
1280

I'd like to know its RP-LC retention time. The compound in question is CCSc1ccccc1C(=O)Nc1ccc(-c2nc(C)no2)cc1 878

I'd like to know its RP-LC retention time. The compound in question is O=C(NCCN1CCOCC1)c1csc(N2CCN(c3ccccc3)CC2)n1 650

---

- testMethodNotes: gradient 5% acetonitrile 3 min, to 50% in 2 min, to 85% in 15 min, held 3 min, 100 µL/min
- measurementConditions: column: Zorbax Extend-C18 2.1 x 50 mm; eluents: water / acetonitrile, 0.1% formic acid
parameterMeasured: RP-LC retention time (s)
Please reply with the bare figure in s and do not write the unit itself.

// known answers, use as guide
>>> measvalue("COc1ccc(NC(=O)Cc2nnc(-c3ccc4ncccc4c3)o2)cc1OC")
655
>>> measvalue("Cc1ccc2c(c1)N(Cc1ccccc1C)N=C(C(=O)N1CCOCC1)S2(=O)=O")
877
>>> measvalue("CCOc1cc(C(=O)Nc2cc(=O)n(C)c(=O)n2C)cc(OCC)c1OCC")
691

Consider the record given below.
I'd like to know its RP-LC retention time. The compound in question is CCN1C(=O)c2cccnc2Sc2cc(NC(=O)c3ccccc3C)ccc21 833

---

- testMethodNotes: gradient 5% acetonitrile 3 min, to 50% in 2 min, to 85% in 15 min, held 3 min, 100 µL/min
- measurementConditions: column: Zorbax Extend-C18 2.1 x 50 mm; eluents: water / acetonitrile, 0.1% formic acid
Reported RP-LC retention time values for the following compounds.
Please reply with the bare figure in s and do not write the unit itself.

// known answers, use as guide
>>> measvalue("Cc1ccc(CNS(=O)(=O)c2ccc(-c3c(C)noc3C)cc2)cc1")
996
>>> measvalue("COc1ccc(C2(CNC(=O)C(=O)Nc3ccc(N4CCCC4=O)c(C)c3)CCCC2)cc1")
909
>>> measvalue("CS(=O)(=O)N1CCCN(C(=O)c2ccccc2F)CC1")
651
>>> measvalue("O=C(NCCN1CCOC(c2ccccc2)C1)c1ccc(Cl)c(Cl)c1 (stereo not given)")
610

Consider the record given below.
I'd like to know its RP-LC retention time. The compound in question is CCc1nnc2ccc(-c3noc(-c4ccc(OC)c(OC)c4)n3)cn12 829

---

- testMethodNotes: gradient 5% acetonitrile 3 min, to 50% in 2 min, to 85% in 15 min, held 3 min, 100 µL/min
- measurementConditions: column: Zorbax Extend-C18 2.1 x 50 mm; eluents: water / acetonitrile, 0.1% formic acid
parameterMeasured: RP-LC retention time
Report the figure along with its unit, number first.

>>> measvalue("CCOC(=O)C1C(=O)C=C(c2cccs2)CC1c1ccc(F)cc1 (stereo not given)")
"1110 s"
>>> measvalue("Cc1ccnc(NC(=O)C2CCN(S(=O)(=O)c3ccc4c(c3)sc(=O)n4C(C)C)CC2)c1")
"794 s"
>>> measvalue("COC(=O)c1cc(S(=O)(=O)N2CCCC2C(=O)Nc2cccc(SC)c2)cn1C (stereo not given)")
"909 s"
>>> measvalue("Cc1ccc(NC(=O)C2CCCN2S(=O)(=O)c2cc3c(cc2C)NC(=O)CO3)cc1 (stereo not given)")
"758 s"

Consider the record given below.
I'd like to know its RP-LC retention time. The compound in question is O=c1c2scc(-c3cccc(F)c3)c2ncn1Cc1ccc(Br)cc1 1170 s
